Reported viability, T/C is given for each of the following compounds.
# System: 138582-337-R-J1-PDC spheroids with HUVEC/MSC, viability
# Experiment Notes: Anticancer human tumor 138582-337-R-J1-PDC patient-derived Merkel cell tumor cell line growth inhibition [IpAb]
# Experimental Conditions: second compound 0.0316 µM; first compound 0.1 µM; stronger effect = lower value
Output spec: scalar in %, unitless text.

Please look up its viability, T/C: C=CCn1c(=O)c2cnc(Nc3ccc(N4CCN(C)CC4)cc3)nc2n1-c1cccc(C(C)(C)O)n1 + CCN1CCN(Cc2ccc(Nc3ncc(F)c(-c4cc(F)c5nc(C)n(C(C)C)c5c4)n3)nc2)CC1
99.5

Please look up its viability, T/C: C=CC(=O)N1CCN(c2nc(=O)n(-c3c(C)ccnc3C(C)C)c3nc(-c4c(O)cccc4F)c(F)cc23)C(C)C1 (stereo not given) + CCN1CCN(Cc2ccc(Nc3ncc(F)c(-c4cc(F)c5nc(C)n(C(C)C)c5c4)n3)nc2)CC1
95.7

Please look up its viability, T/C: Cn1ncnc1[C@H]1c2n[nH]c(=O)c3cc(F)cc(c23)N[C@@H]1c1ccc(F)cc1 + CCN1CCN(Cc2ccc(Nc3ncc(F)c(-c4cc(F)c5nc(C)n(C(C)C)c5c4)n3)nc2)CC1
66.2

* * *

Reported IC50 is given for each of the following compounds.
# Test system: 138582-337-R-J1-PDC spheroids with HUVEC/MSC, viability
# Experiment Notes: Anticancer human tumor 138582-337-R-J1-PDC cell line growth inhibition [IpAb];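 also: spheroids exposed to compounds for seven days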
# Experimental Conditions: curve of first compound; second compound 1 µM

Compound	Result
CC1(C)CCC(CN2CCN(c3ccc(C(=O)NS(=O)(=O)c4ccc(NCC5CCOCC5)c([N+](=O)[O-])c4)c(Oc4cnc5[nH]ccc5c4)c3)CC2)=C(c2ccc(Cl)cc2)C1 + CCN1CCN(Cc2ccc(Nc3ncc(F)c(-c4cc(F)c5nc(C)n(C(C)C)c5c4)n3)nc2)CC1	> 10 µM

Now for another entry.
Please look up its IC50: Cn1ncnc1[C@H]1c2n[nH]c(=O)c3cc(F)cc(c23)N[C@@H]1c1ccc(F)cc1 + CCN1CCN(Cc2ccc(Nc3ncc(F)c(-c4cc(F)c5nc(C)n(C(C)C)c5c4)n3)nc2)CC1
> 0.1 µM

* * *

Reported viability, T/C is given for each of the following molecules.
# Test system: 138582-337-R-J1-PDC spheroids with HUVEC/MSC, viability
# Experiment Notes: Anticancer human tumor 138582-337-R-J1-PDC cell line growth inhibition [IpAb];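 also: spheroids exposed to compounds for seven days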;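 as to viability, T/C: 100% = DMSO vehicle control viability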
# Experimental Conditions: second compound 0.316 µM; first compound 3.16 µM; stronger effect = lower value
Output spec: scalar in %, unitless text.

These recorded examples may help you get a feel for the data.
Molecule	Target Or Test System	viability, T/C (%)
C=CCn1c(=O)c2cnc(Nc3ccc(N4CCN(C)CC4)cc3)nc2n1-c1cccc(C(C)(C)O)n1 + CCN1CCN(Cc2ccc(Nc3ncc(F)c(-c4cc(F)c5nc(C)n(C(C)C)c5c4)n3)nc2)CC1	138582-337-R-J1-PDC spheroids with HUVEC/MSC, viability	116
C=CC(=O)N1CCN(c2nc(=O)n(-c3c(C)ccnc3C(C)C)c3nc(-c4c(O)cccc4F)c(F)cc23)C(C)C1 (stereo not given) + CC(C)NCC(C(=O)N1CCN(c2ncnc3c2C(C)CC3O)CC1)c1ccc(Cl)cc1	138582-337-R-J1-PDC spheroids with HUVEC/MSC, viability	105
CC1(C)CCC(CN2CCN(c3ccc(C(=O)NS(=O)(=O)c4ccc(NCC5CCOCC5)c([N+](=O)[O-])c4)c(Oc4cnc5[nH]ccc5c4)c3)CC2)=C(c2ccc(Cl)cc2)C1 + CCN1CCN(Cc2ccc(Nc3ncc(F)c(-c4cc(F)c5nc(C)n(C(C)C)c5c4)n3)nc2)CC1	138582-337-R-J1-PDC spheroids with HUVEC/MSC, viability	90.8
Cn1ncc(Cl)c1-c1cc(C(=O)NC(CN)Cc2cccc(F)c2)sc1Cl (stereo not given) + CCN1CCN(Cc2ccc(Nc3ncc(F)c(-c4cc(F)c5nc(C)n(C(C)C)c5c4)n3)nc2)CC1	138582-337-R-J1-PDC spheroids with HUVEC/MSC, viability	35.3

Now for another entry.
Please look up its viability, T/C: CCCS(=O)(=O)Nc1ccc(F)c(C(=O)c2c[nH]c3ncc(-c4ccc(Cl)cc4)cc23)c1F + CCN1CCN(Cc2ccc(Nc3ncc(F)c(-c4cc(F)c5nc(C)n(C(C)C)c5c4)n3)nc2)CC1
103

* * *

# Test system: 138582-337-R-J1-PDC spheroids with HUVEC/MSC, viability
# Experiment Notes: Anticancer human tumor 138582-337-R-J1-PDC cell line growth inhibition [IpAb];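 also: spheroids exposed to compounds for seven days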
# Experimental Conditions: curve of first compound; second compound 0.1 µM
# Protocol: Combinatorial screen of targeted agents with ipatasertib and abemaciclib in multi-cell type tumor spheroids […] Compounds. […] If the clinical Cmax for an agent had not been determined, the highest concentration tested was 10 microM. NCI60 Cell Culture. […] The optimal seeding densities for each of the cell lines at each time point assessed were determined prior to performing the concentration response studies. […]
pIC50: −log10 of the molar value.
Readout Type: pIC50

These recorded examples may help you get a feel for the data.
Molecule	pIC50
CCCS(=O)(=O)Nc1ccc(F)c(C(=O)c2c[nH]c3ncc(-c4ccc(Cl)cc4)cc23)c1F + CC(C)NCC(C(=O)N1CCN(c2ncnc3c2C(C)CC3O)CC1)c1ccc(Cl)cc1	< 5.00
Cn1ncc(Cl)c1-c1cc(C(=O)NC(CN)Cc2cccc(F)c2)sc1Cl (stereo unspecified) + CCN1CCN(Cc2ccc(Nc3ncc(F)c(-c4cc(F)c5nc(C)n(C(C)C)c5c4)n3)nc2)CC1	5.92
CC1(C)CCC(CN2CCN(c3ccc(C(=O)NS(=O)(=O)c4ccc(NCC5CCOCC5)c([N+](=O)[O-])c4)c(Oc4cnc5[nH]ccc5c4)c3)CC2)=C(c2ccc(Cl)cc2)C1 + CCN1CCN(Cc2ccc(Nc3ncc(F)c(-c4cc(F)c5nc(C)n(C(C)C)c5c4)n3)nc2)CC1	< 5.00
Cn1cnc2c(F)c(Nc3ccc(Br)cc3Cl)c(C(=O)NOCCO)cc21 + CCN1CCN(Cc2ccc(Nc3ncc(F)c(-c4cc(F)c5nc(C)n(C(C)C)c5c4)n3)nc2)CC1	< 5.52
CC(=O)c1c(C)c2cnc(Nc3ccc(N4CCNCC4)cn3)nc2n(C2CCCC2)c1=O + CC(C)NCC(C(=O)N1CCN(c2ncnc3c2C(C)CC3O)CC1)c1ccc(Cl)cc1	< 6.52
Cn1cnc2c(F)c(Nc3ccc(Br)cc3Cl)c(C(=O)NOCCO)cc21 + CC(C)NCC(C(=O)N1CCN(c2ncnc3c2C(C)CC3O)CC1)c1ccc(Cl)cc1	< 5.52

Notebook entry, 138582-337-R-J1-PDC spheroids with HUVEC/MSC, viability assay: pIC50 of Cn1ncnc1[C@H]1c2n[nH]c(=O)c3cc(F)cc(c23)N[C@@H]1c1ccc(F)cc1 + CCN1CCN(Cc2ccc(Nc3ncc(F)c(-c4cc(F)c5nc(C)n(C(C)C)c5c4)n3)nc2)CC1 = ?
< 7.00

Notebook entry, 138582-337-R-J1-PDC spheroids with HUVEC/MSC, viability assay: pIC50 of C=CC(=O)N1CCN(c2nc(=O)n(-c3c(C)ccnc3C(C)C)c3nc(-c4c(O)cccc4F)c(F)cc23)C(C)C1 (stereo unspecified) + CC(C)NCC(C(=O)N1CCN(c2ncnc3c2C(C)CC3O)CC1)c1ccc(Cl)cc1 = ?
< 5.00

Notebook entry, 138582-337-R-J1-PDC spheroids with HUVEC/MSC, viability assay: pIC50 of Cc1nc(NC(=O)N2CCCC2C(N)=O)sc1-c1ccnc(C(C)(C)C(F)(F)F)c1 (stereo unspecified) + CC(C)NCC(C(=O)N1CCN(c2ncnc3c2C(C)CC3O)CC1)c1ccc(Cl)cc1 = ?
5.83

Notebook entry, 138582-337-R-J1-PDC spheroids with HUVEC/MSC, viability assay: pIC50 of C=CCn1c(=O)c2cnc(Nc3ccc(N4CCN(C)CC4)cc3)nc2n1-c1cccc(C(C)(C)O)n1 + CCN1CCN(Cc2ccc(Nc3ncc(F)c(-c4cc(F)c5nc(C)n(C(C)C)c5c4)n3)nc2)CC1 = ?
< 5.00

Notebook entry, 138582-337-R-J1-PDC spheroids with HUVEC/MSC, viability assay: pIC50 of Cn1ncc(Cl)c1-c1cc(C(=O)NC(CN)Cc2cccc(F)c2)sc1Cl (stereo unspecified) + CC(C)NCC(C(=O)N1CCN(c2ncnc3c2C(C)CC3O)CC1)c1ccc(Cl)cc1 = ?
5.52

* * *

# Test system: 138582-337-R-J1-PDC spheroids with HUVEC/MSC, viability
# Experiment Notes: Anticancer human tumor 138582-337-R-J1-PDC cell line growth inhibition [IpAb];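 also: spheroids exposed to compounds for seven days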;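 as to viability, T/C: 100% = DMSO vehicle control viability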
# Experimental Conditions: second compound 0.1 µM; first compound 0.00316 µM; stronger effect = lower value
Rule: viability, T/C below 80% gives Fulfilled. Equal to or above 80% gives Not fulfilled.

Some solved entries appear below for comparison.
Compound	Target Or Test System	Discrete Label
COc1c(OCCCN2CCOCC2)ccc2c3n(c(=NC(=O)c4cnc(N)nc4)nc12)CCN3 + CCN1CCN(Cc2ccc(Nc3ncc(F)c(-c4cc(F)c5nc(C)n(C(C)C)c5c4)n3)nc2)CC1	138582-337-R-J1-PDC spheroids with HUVEC/MSC, viability	Not fulfilled
Cn1ncnc1[C@H]1c2n[nH]c(=O)c3cc(F)cc(c23)N[C@@H]1c1ccc(F)cc1 + CCN1CCN(Cc2ccc(Nc3ncc(F)c(-c4cc(F)c5nc(C)n(C(C)C)c5c4)n3)nc2)CC1	138582-337-R-J1-PDC spheroids with HUVEC/MSC, viability	Fulfilled

Item CC(C)n1nc(-c2ccc3oc(N)nc3c2)c2c(N)ncnc21 + CC(C)NCC(C(=O)N1CCN(c2ncnc3c2C(C)CC3O)CC1)c1ccc(Cl)cc1 : viability, T/C beneath 80%, strictly?
Fulfilled

Item Cn1ncnc1[C@H]1c2n[nH]c(=O)c3cc(F)cc(c23)N[C@@H]1c1ccc(F)cc1 + CC(C)NCC(C(=O)N1CCN(c2ncnc3c2C(C)CC3O)CC1)c1ccc(Cl)cc1 : viability, T/C beneath 80%, strictly?
Not fulfilled
